The reported numbers originate from the supplement of paper PMC10567573.

B1: SMOC2 (parent)
chain: QKPLCASDGRTFLSRCEFQRAKCK

- Variants of: B1
- RUN_DESCRIPTION: protein stability index of a GFP-peptide fusion (GPS, HEK-293T) (PSI 1-6); higher = more stable;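 note: lentivirally expressed fusions sorted by FACS into six bins by GFP to DsRed ratio, PSI derived from sequencing read proportions per bin multiplied by bin number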
- RECORDED_CONDITIONS: c terminus: a fixed tail appended
MEASURED_PROPERTY: protein stability index
Answer as a number with no unit attached.

Solved cases below.
A21S: 3.14
P3G: 2.5

### Prompt Using the record for G9F , report its protein stability index.
### Response 2.2
